# Tested on: SR
# ASSAY_PROTOCOL: NCI tumour cell line growth inhibition, 48 h
Activity calls are given as the source filed them. Cut-off read from the data, not from the text of the source: active = GI50 up to about 1.1 µM and inactive = higher.
RECORDED_ENDPOINT: GI50

Below, 3 compounds whose answers are already recorded.
COMPOUND	TESTED_TARGET	GI50
COc1cc2ccc3c4ccccc4cnc3c2cc1OC	SR	> 100 µM (inactive)
OCC1OC(O[C@H]2CN3[C@H](O)[C@@H](O)[C@H](O)[C@H]3C2O)C(O)C(O)C1O (stereo partly drawn)	SR	> 100 µM (inactive)
CC(C)=NOC(=O)CNC(=O)C(Cc1ccccc1)NC(=O)C(C)NC(=O)OC(C)(C)C (stereo not drawn)	SR	> 100 µM (inactive)

Asked: Which GI50 reading was recorded for the compound C=CCC12CCC(=O)C=C1CCC1(C2)OCCO1 (stereo not drawn) ?
Given back: > 100 µM (inactive)

Asked: Further, for CCOC(=O)C1=C(OC(OCC)C(CC)[Se]c2ccccc2)CCC1 (stereo not drawn) ?
Given back: 19.3 µM (inactive)

Asked: Further, for COc1ccc(-c2c3c(n(C4OC(CO)C(O)C(O)C4O)c(=S)c2C#N)CC(C)(C)CC3=O)cc1 (stereo not drawn) ?
Given back: 74.5 µM (inactive)

Asked: Further, for "CC(C)C(/C=C/c1ccccc1)=N\NC(=O)N/N=C(/C=C/c1ccccc1)C(C)C" ?
Given back: 20.8 µM (inactive)

Asked: Further, for COC1OC(OC)C2C(c3c(C)cc(C)cc3C)=NOC12 (stereo not drawn) ?
Given back: > 100 µM (inactive)

* * *

# Tested on: SR
# ASSAY_PROTOCOL: NCI tumour cell line growth inhibition, 48 h
Active and inactive are the calls of the source. Rule as the data show it: active = GI50 up to about 1.1 µM and inactive = higher.
Lab note: assign the record to one of True = active, False = inactive

Here are 5 compounds together with their reported answers.
COMPOUND	ASSIGNED_CLASS
O=C(CN(Cc1ccccc1)Cc1ccccc1)N1CCc2c([nH]c3ccccc23)C1c1cccnc1 (stereo unspecified)	False
Nc1nc(Cl)cc(NCC2(CO)CCC2)n1	False
COC1/C=C\OC2(C)Oc3c(C)c(O)c4c(O)c(c(/C=N\OCCCc5ccccc5)c(O)c4c3C2=O)NC(=O)/C(C)=C\C=C/C(C)C(O)C(C)C(O)C(C)C(OC(C)=O)C1C (stereo unspecified)	False
CC1=CCC[C@H]2[C@](C)(CC3=CC(=O)C(Sc4ccccc4)=CC3=O)[C@@H](C)CC[C@]12C	False
CCOC(=O)c1c(SCCN2CCCC2)n(-c2ccccc2)c(=S)n(-c2ccccc2)c1=O	True

Asked: # outcome recorded in this test, key = O=C1c2ccccc2OP(=O)(OCC(F)(F)F)OC1(C(F)(F)F)C(F)(F)F (stereo unspecified)
Given back: False

* * *

# Tested on: T47D
# ASSAY_PROTOCOL: NCI tumour cell line growth inhibition, 48 h
Activity calls are given as the source filed them. Rule as the data show it: active = GI50 up to about 1.1 µM and inactive = higher.
Lab note: assign the record to one of YES = active, NO = inactive

Asked: # outcome recorded in this test, key = CCOC(=O)C1=C(C)N(c2ccc(OC)cc2)C2(O)C=CC(O)=C3C(=O)c4ccccc4C(=O)C312 (configuration not stated)
Given back: NO

Asked: Further, for "Cc1cccc(/N=N/C(=N\NC(=O)c2cc(Cl)ccc2O)c2ccc(N(CCC#N)CCC#N)cc2C)c1" ?
Given back: NO

Asked: Further, for "Cc1cc(OCc2nnc3sc(NC(=O)c4ccccc4)nn23)ccc1Cl" ?
Given back: NO

Asked: Further, for "CC(=O)C1(c2ccccc2)CCN(Cn2sc3nc(C)cc(C)c3c2=O)CC1" ?
Given back: NO

Asked: Further, for "c1ccc(C(=NNc2nc3ccccc3[nH]2)c2ccccn2)nc1" ?
Given back: YES

Asked: Further, for "COc1ccc2[nH]c3c(c2c1)CCc1c(OC)cccc1-3" ?
Given back: NO

Asked: Further, for "CC(C)N1CSC(=S)N(Cc2ccccc2)C1" ?
Given back: NO

* * *

# Tested on: A549
# ASSAY_PROTOCOL: NCI tumour cell line growth inhibition, 48 h
Active and inactive are the calls of the source. Cut-off read from the data, not from the text of the source: active = GI50 up to about 1.1 µM and inactive = higher.
Property: GI50; scope: individual compounds

Asked: Which GI50 reading was recorded for the compound "O=C1C(=O)N(c2cccc(C(F)(F)F)c2)C(=O)C(=O)C1c1nc2ccccc2s1" ?
Given back: > 100 µM (inactive)

Asked: Further, for "COc1ccc2nc(N/N=C/C(C)=N/Nc3cc(C)c4cc(OC)ccc4n3)cc(C)c2c1" ?
Given back: 19.7 µM (inactive)

Asked: Further, for "COc1cc2oc3ccccc3c(=O)c2cc1CSc1ccccc1N" ?
Given back: 23.4 µM (inactive)

Asked: Further, for "O=C1C(c2ccccc2)=C(c2ccccc2)[C@H](c2ccccc2)[C@]1(Cc1nnn(-c2ccc([N+](=O)[O-])cc2)c1N1CCOCC1)c1ccccc1" ?
Given back: > 37.5 µM (inactive)

Asked: Further, for "N#CC(C#N)c1ccc(C(=O)N2CCC[C@H]2CO)cc1" ?
Given back: > 100 µM (inactive)

Asked: Further, for "Nc1nc(CCl)nc(N2CCOCC2)n1" ?
Given back: > 100 µM (inactive)

* * *

# Tested on: 786-0
# ASSAY_PROTOCOL: NCI tumour cell line growth inhibition, 48 h
Calls of active or inactive are those of the source. Cut-off read from the data, not from the text of the source: active = GI50 up to about 1.1 µM and inactive = higher.
Lab note: assign the record to one of active, inactive

Here are 6 compounds together with their reported answers.
COMPOUND	TESTED_TARGET	ASSIGNED_CLASS
CC1(c2sccc2Cl)CC(c2sccc2Cl)=C(C#N)C(=C(C#N)C#N)N1 (configuration not stated)	786-0	inactive
CC(C)(C)c1cc(OCc2nn3c(Cc4ccccc4)nnc3s2)c(Cl)cc1OCc1nn2c(Cc3ccccc3)nnc2s1	786-0	inactive
O=C(OCC1CCCN2CCCCC12)c1ccncc1 (configuration not stated)	786-0	inactive
O=C1C(c2ccccc2)=C(c2ccccc2)[C@H](c2ccccc2)[C@]1(Cc1nnn(-c2ccc([N+](=O)[O-])cc2)c1N1CCOCC1)c1ccccc1	786-0	inactive
Cc1cccc(-c2cc(O)c3cccnc3n2)c1	786-0	active
CCCCCCCCOC(=O)C12Oc3ccc(-c4ccc5c(c4O)C(=O)C4=C(O)CC(C)C(O)C4(C(=O)OCCCCCCCC)O5)c(O)c3C(=O)C1=C(O)CC(C)C2O (configuration not stated)	786-0	inactive

Attention now turns to another entry.
Asked: # outcome recorded in this test, key = O=c1[nH]c(=O)n(C2CC(O)C(CO)O2)c2nc3cc4ccccc4cc3nc12 (configuration not stated)
Given back: inactive

* * *

# System: OVCAR-3
# ASSAY_PROTOCOL: NCI tumour cell line growth inhibition, 48 h
The source made the active and inactive calls. No stated cut-off is given here; in the data, active = GI50 up to about 1.1 µM and inactive = higher.
Lab note: assign the record to one of true (active), false (inactive)

Here are 6 molecules together with their reported answers.
MOLECULE	ASSIGNED_CLASS
C/C(=N/NC(=O)C[N+](C)(C)C)C(CN(C)C)C(=O)Nc1ccccc1 (centres undefined)	false
COC(=O)/C=C/c1ccc2c(c1)[C@H](C(=O)OC)[C@@H](c1ccc(O)cc1)O2	false
[B].c1ccc([Si](OCCN2CC2)(c2ccccc2)c2ccccc2)cc1	false
CCOC(=O)/C(C(=S)Nc1ccccc1)=C(/N)N1CCCC1	false
CC(C)(C)NCc1cc(Nc2ccnc3cc(Cl)ccc23)cc(-c2ccc(Cl)cc2)c1O	false
Cc1cc(C)nc(NS(=O)(=O)c2ccc(NNc3c4ccccc4nc4c(C(=O)Nc5ccc(S(=O)(=O)Nc6cc(C)on6)cc5)cccc34)cc2)n1	false

Asked: # outcome recorded in this test, key = "Cc1ccc2c(=O)cc(-c3cccc(F)c3)[nH]c2n1"
Given back: true

Asked: Further, for "[N-]=[N+]=CC(=O)OC1CCOCC1" ?
Given back: false

Asked: Further, for COC(=O)CC1c2ccccc2N2C(=O)Cc3c([nH]c4ccccc34)C12 (centres undefined) ?
Given back: false

* * *

# System: MDA-MB-435
# ASSAY_PROTOCOL: NCI tumour cell line growth inhibition, 48 h
Activity calls are given as the source filed them. No stated cut-off is given here; in the data, active = GI50 up to about 1.1 µM and inactive = higher.
RECORDED_ENDPOINT: GI50

Below, 5 compounds whose answers are already recorded.
COMPOUND	GI50
COc1cc2oc3ccccc3c(=O)c2cc1CSc1ccccc1N	2.47 µM (inactive)
OC1(c2cc3ccccc3s2)CCCCC1	46.8 µM (inactive)
O=C1CC(Cl)c2c1csc2Br (configuration not stated)	15.1 µM (inactive)
CC1=CC2(O)OC3(CC2=C(C)C)C(C)CCC13 (configuration not stated)	> 100 µM (inactive)
CNc1ncnc2c1cnn2COCC(O)CO (configuration not stated)	> 100 µM (inactive)

Asked: Which GI50 reading was recorded for the compound "CC(=O)C1(c2ccccc2)CCN(Cn2sc3nc(C)cc(C)c3c2=O)CC1" ?
Given back: 23.1 µM (inactive)

Asked: Further, for "CSc1cc(Cl)c(C)cc1S(=O)(=O)NC(=O)NNc1ccc(Cl)cc1" ?
Given back: > 100 µM (inactive)

* * *

# Test system: MCF7
# ASSAY_PROTOCOL: NCI tumour cell line growth inhibition, 48 h
Active and inactive are the calls of the source. Rule as the data show it: active = GI50 up to about 1.1 µM and inactive = higher.
Lab note: assign the record to one of True = active, False = inactive

Here are 5 compounds together with their reported answers.
COMPOUND	ASSIGNED_CLASS
Cc1ccc(/N=N/C(=O)NNc2ccc(C)c([N+](=O)[O-])c2)cc1[N+](=O)[O-]	False
CCOC(=O)/C=C(/OCC)[C@@H]1C(C(=O)c2ccc(Cl)cc2)[C@H]1/C(=C\C(=O)OCC)OCC (stereo partly drawn)	False
CC(=O)O[C@H]1C(=O)[C@@]2(C)[C@H]([C@H](OC(=O)c3cccc(C(F)(F)F)c3)[C@]3(O)C[C@H](OC(=O)[C@H](O)[C@@H](NC(=O)c4ccccc4)c4ccccc4)C(C)=C1C3(C)C)[C@]1(OC(C)=O)CO[C@@H]1C[C@@H]2O	True
O=C(O)Cn1ccc(=O)c2c([N+](=O)[O-])cccc21	False
Cc1cc(C)nc(NS(=O)(=O)c2ccc(NNc3c4ccccc4nc4c(C(=O)Nc5ccc(S(=O)(=O)Nc6cc(C)on6)cc5)cccc34)cc2)n1	False

Asked: # outcome recorded in this test, key = "Nc1ccc2nc(N)n[n+]([O-])c2c1"
Given back: False

Asked: Further, for "COc1ccc2[nH]c3c(c2c1)CCc1c(OC)cccc1-3" ?
Given back: False

Asked: Further, for CCOc1ccc(N2C(=O)NC3(c4ccccc4)N(C)C(=O)N(C)C23c2ccccc2)cc1 (stereo not drawn) ?
Given back: False

Asked: Further, for "C[n+]1c(-c2ccc(/C=N/Nc3ccnc(N/N=C/c4ccc(-c5cn6ccsc6[n+]5C)cc4)n3)cc2)cn2ccsc21" ?
Given back: False

Asked: Further, for "Cc1ccc(-c2c(C#N)c(-c3ccccc3)c(C#N)c(=O)n2NS(=O)(=O)c2ccc(C)cc2)cc1" ?
Given back: False

Asked: Further, for "Cc1cnc2sn(-c3ccc([N+](=O)[O-])cc3)c(=O)c2c1" ?
Given back: False

Asked: Further, for O=C1NN(c2ccccc2)C(=O)C2C3c4ccccc4C(c4ccccc43)C12 (stereo not drawn) ?
Given back: False

Asked: Further, for "CCOC(=O)CSc1nc(-c2ccc(Cl)cc2)c(C#N)c(=O)[nH]1" ?
Given back: False
